The measurements presented in this section are drawn from the supplement of paper PMC11451515.

Measured cell viability, listed per entry.
test system: SEM cells; assay: cell viability relative to DMSO control; higher = less cytotoxic; details: RPMI 5 mM glucose + 10% FBS; 48 h; 0.0211 µM
Numbers only; they are read as %.

Here is how some molecules turned out for cell viability.
CC1=C(/C=C/C(C)=C/C=C/C(C)=C/C(=O)O)C(C)(C)CCC1	123
N#Cc1ccnc(N2C(=O)CC[C@H]2C(=O)N(c2cncc(F)c2)[C@H](C(=O)NC2CC(F)(F)C2)c2ccccc2Cl)c1	132
CC(C)Cn1cnc2c(N)nc3ccccc3c21	115
NC[C@H]1O[C@H](O[C@H]2[C@H](O)[C@@H](O[C@H]3O[C@H](CO)[C@@H](O)[C@H](N)[C@H]3O)[C@H](N)C[C@@H]2N)[C@H](N)C[C@@H]1O	98.6

INPUT: What measured cell viability goes with CN(C)CCc1c[nH]c2ccc(C[S+](=O)([O-])N3CCCC3)cc12 ?
OUTPUT: 93.7

INPUT: Quick one: cell viability for C[N]1C=C(C=N1)C2=CC=C3N=CC\4=C(N(C(=O)\C=C4)C5=CC6=C(CCN6C(=O)C=C)C=C5)C3=C2 ?
OUTPUT: 110

INPUT: Which cell viability value is on record for Cc1c(C(=O)c2cccc3ccccc23)c2cccc3c2n1[C@H](CN1CCOCC1)CO3 ?
OUTPUT: 94.6

###

cell viability values by entry
test system: P12-Ichikawa; assay: cell viability relative to DMSO control; higher = less cytotoxic; conditions: HPLM + 10% dialyzed FBS; 48 h; 0.0211 µM
Give the value in % but do not write % after it.

CC(C)Cn1cnc2c(N)nc3ccccc3c21	116
N=C(N)NC(=N)N1CCOCC1	113

INPUT: Sample OC[C@H]1OC(OC2=CC3=C(C(=C2)O)C(=O)\C(=C/O3)C4=CC=C(O)C=C4)[C@H](O)[C@@H](O)[C@@H]1O (stereo not given in full) — what was its cell viability?
OUTPUT: 81.5

INPUT: Consider the molecule shown here: CCc1cc(-c2n[nH]c(C)c2-c2ccc3c(c2)OCCO3)c(O)cc1O What is its recorded cell viability?
OUTPUT: 132

INPUT: Look up cell viability: Nc1nc(NCCNc2ncc(-n3ccnc3)c(-c3ccc(Cl)cc3Cl)n2)ccc1[N+](=O)[O-]
OUTPUT: 123

###

test system: P12-Ichikawa; assay: cell viability relative to DMSO control; higher = less cytotoxic; details: RPMI 5 mM glucose + 10% FBS; 48 h; 46.1 µM
Each item that follows carries a reported cell viability.
Please respond with the number in % and leave the unit unwritten.

Examples from the recorded data:
Oc1ccc2ccccc2c1SSc1c(O)ccc2ccccc12	62.2
CCOC(=O)[C@H]1O[C@@H]1C(=O)N[C@@H](CC(C)C)C(=O)NCCC(C)C	92.9
Cc1cccc(-c2[nH]c(C(C)(C)C)nc2-c2ccc3c(c2)OCO3)n1	8.01

INPUT: Look up cell viability for this compound: Nc1ccc([S+](=O)([O-])Nc2ncccn2)cc1
OUTPUT: 106

INPUT: Would you mind telling me what cell viability value was observed for OC[C@H]1OC(OC2=CC3=C(C(=C2)O)C(=O)\C(=C/O3)C4=CC=C(O)C=C4)[C@H](O)[C@@H](O)[C@@H]1O (some centres not stated) ?
OUTPUT: 85.6

INPUT: So what's the measured cell viability for this one? O=[S+]([O-])(NCCNC/C=C/c1ccc(Br)cc1)c1cccc2cnccc12
OUTPUT: 72

INPUT: Returns the measured cell viability for the input compound. Input: N=C(N)NC(=N)N1CCOCC1
OUTPUT: 92.4

INPUT: I have this compound here, Oc1c(Cl)cc(Cl)c2cccnc12 , and I need its recorded cell viability.
OUTPUT: 30.5

INPUT: Which measured cell viability value corresponds to COc1ccc2[nH]cc(CCNC(C)=O)c2c1 ?
OUTPUT: 112

INPUT: What does the data say about its cell viability? Entry: Cc1nc(N)ncc1-c1nc(N2CCOCC2)c2sc(C(C)(C)O)cc2n1
OUTPUT: 5.39

INPUT: What value of cell viability has been reported for the following compound? C[C@H](NCc1ccc(OCc2cccc(F)c2)cc1)C(N)=O
OUTPUT: 32.9

INPUT: Need cell viability of COc1cc2ncn(-c3cc(OCc4ccccc4C(F)(F)F)c(C(N)=O)s3)c2cc1OC , thanks.
OUTPUT: 11.1

###

system: NOMO1; test: cell viability relative to DMSO control; higher = less cytotoxic; details: HPLM + 10% dialyzed FBS; 48 h; 15.4 µM
Below: a set of entries, each annotated with reported cell viability.
Answer with a number only, understood to be in %.

CCCCc1nc2cc(/C=C/C(=O)NO)ccc2n1CCN(CC)CC	4.23
C[N+]1(C)[C@@H]2CC(OC(=O)C(O)(c3cccs3)c3cccs3)C[C@H]1[C@@H]1O[C@@H]12 (stereo partly drawn)	110
O=[S+]([O-])(NCCNC/C=C/c1ccc(Br)cc1)c1cccc2cnccc12	79.3
CN(C)[C@@H](CCOc1cccc2ccccc12)c1ccccc1	106
CN1CCN(CCCN2c3ccccc3Sc3ccc(Cl)cc32)CC1.O=C(O)/C=C\C(=O)O.O=C(O)/C=C\C(=O)O	29.9
COC(=O)C/1=C(C)/N/C(=C(\C1C2=CC(=CC=C2)[N+]([O-])=O)C(=O)OCCCN3CCC(CC3)(C4=CC=CC=C4)C5=CC=CC=C5)C (stereo not drawn)	102

INPUT: Given the entry O=C(NCC1CCOCC1)c1cnc(Nc2ccc(Cl)cc2Cl)nc1C(F)(F)F , report its measured cell viability.
OUTPUT: 141

INPUT: cell viability lookup needed for OC[C@H]1OC(OC2=CC3=C(C(=C2)O)C(=O)\C(=C/O3)C4=CC=C(O)C=C4)[C@H](O)[C@@H](O)[C@@H]1O (stereo partly drawn) , thanks.
OUTPUT: 72

INPUT: Which measured cell viability value corresponds to NNc1nncc2ccccc12 ?
OUTPUT: 119

INPUT: For the compound shown here, C1COC(NC(C2CC2)C2CC2)=N1 , give the reported cell viability.
OUTPUT: 96.3

INPUT: I have this compound here, CC(C)(Sc1ccc(CCN(CCCCC2CCCCC2)C(=O)NC2CCCCC2)cc1)C(=O)O , and I need its recorded cell viability.
OUTPUT: 114

INPUT: Quick check: cell viability of NC[C@H]1O[C@H](O[C@H]2[C@H](O)[C@@H](O[C@H]3O[C@H](CO)[C@@H](O)[C@H](N)[C@H]3O)[C@H](N)C[C@@H]2N)[C@H](N)C[C@@H]1O ?
OUTPUT: 91.9

INPUT: For O=C(NCc1ccccc1)c1csc(Nc2ccncn2)n1 , what is its reported cell viability?
OUTPUT: 4.88

INPUT: Item under review: C=CC(=O)Nc1ccc2ncnc(Nc3ccc(OCc4cccc(F)c4)c(Cl)c3)c2c1 . Reported cell viability?
OUTPUT: 17.1

INPUT: What value of measured cell viability is listed for Cc1cccc2c1CC[C@H](CN1CCC(c3c(Cl)cccc3Cl)CC1)C[C@@H]2O ?
OUTPUT: 97.9

INPUT: cell viability lookup needed for O=C(O)Cc1cccc(OCCCN(Cc2cccc(C(F)(F)F)c2Cl)CC(c2ccccc2)c2ccccc2)c1 , thanks.
OUTPUT: 118

INPUT: // query cell viability value for entry Nc1ccc([S+](=O)([O-])Nc2ncccn2)cc1
OUTPUT: 129

INPUT: I would be grateful if you could share the reported cell viability for NC(CO)C(=O)NNCc1ccc(O)c(O)c1O (stereo not drawn) .
OUTPUT: 89

###

Recorded cell viability values for a group of compounds are listed next.
system: SEM cells; assay: cell viability relative to DMSO control; higher = less cytotoxic; details: RPMI 5 mM glucose + 10% FBS; 48 h; 1.71 µM
Provide the reading as a plain figure in %.

Here are 3 compounds together with their reported answers.
COC(=O)[C@H](c1ccccc1Cl)N1CCc2sccc2C1	103
COC(=O)Nc1nc2ccc([S+]([O-])c3ccccc3)cc2[nH]1 (stereo unspecified)	121
CC(C)Cn1cnc2c(N)nc3ccccc3c21	94.1

INPUT: May I ask what cell viability has been recorded for CC[C@@H]1C(=O)N(C)c2cnc(Nc3ccc(C(=O)NC4CCN(C)CC4)cc3OC)nc2N1C1CCCC1 ?
OUTPUT: 17.8

INPUT: Which cell viability reading was recorded for the compound CN1CCC(CC1)=C2C3=C(C=CC=C3)\C=C/C4=C2C=CC=C4 ?
OUTPUT: 138

INPUT: I am curious: what cell viability value has been reported for CC(C)[N+]1(C)C2CCC1CC(OC(=O)C(CO)c1ccccc1)C2.O.[Br-] (stereo unspecified) ?
OUTPUT: 108

INPUT: # input compound: Oc1c(Cl)cc(Cl)c2cccnc12 ; wanted: its cell viability
OUTPUT: 91.4

INPUT: Looking for the measured cell viability of Nc1ccn([C@H]2CS[C@@H](CO)O2)c(=O)n1 , can you help?
OUTPUT: 130

INPUT: What does the data say about its cell viability? Entry: NNc1nncc2ccccc12
OUTPUT: 162

INPUT: Value lookup for cell viability; key = CN(C)[C@@H](CCOc1cccc2ccccc12)c1ccccc1
OUTPUT: 118

INPUT: What measured cell viability goes with CC[C@H]1CN2CCc3cc(OC)c(OC)cc3[C@@H]2C[C@@H]1C[C@H]1NCCc2cc(OC)c(OC)cc21 ?
OUTPUT: 11
